target: PDK2 (human) (UniProt Q15119); assay: Caliper, Mobility shift assay off-chip; conditions: compound 0.02 µM
Reported inhibition values follow for various molecules

[
  {
    "smiles_structure": "COc1cc2c(Oc3ccc4[nH]c(C)cc4c3F)ncnc2cc1OCCCN1CCCC1",
    "inhibition / %": -2.7
  },
  {
    "smiles_structure": "Cc1ccc(Nc2nccc(N(C)c3ccc4c(C)n(C)nc4c3)n2)cc1S(N)(=O)=O",
    "inhibition / %": -2.3
  },
  {
    "smiles_structure": "CNC(=O)c1ccccc1Sc1ccc2c(/C=C/c3ccccn3)n[nH]c2c1",
    "inhibition / %": -4.8
  },
  {
    "smiles_structure": "CNC(=O)c1cc(Oc2ccc(NC(=O)Nc3ccc(Cl)c(C(F)(F)F)c3)cc2)ccn1",
    "inhibition / %": -0.1
  }
]

----------
Reported inhibition values follow for various compounds
target: PRKD1 (human) (UniProt Q15139); experiment: Caliper, Mobility shift assay off-chip; details: compound 0.2 µM
Sequence (Q15139 whole entry, looked up): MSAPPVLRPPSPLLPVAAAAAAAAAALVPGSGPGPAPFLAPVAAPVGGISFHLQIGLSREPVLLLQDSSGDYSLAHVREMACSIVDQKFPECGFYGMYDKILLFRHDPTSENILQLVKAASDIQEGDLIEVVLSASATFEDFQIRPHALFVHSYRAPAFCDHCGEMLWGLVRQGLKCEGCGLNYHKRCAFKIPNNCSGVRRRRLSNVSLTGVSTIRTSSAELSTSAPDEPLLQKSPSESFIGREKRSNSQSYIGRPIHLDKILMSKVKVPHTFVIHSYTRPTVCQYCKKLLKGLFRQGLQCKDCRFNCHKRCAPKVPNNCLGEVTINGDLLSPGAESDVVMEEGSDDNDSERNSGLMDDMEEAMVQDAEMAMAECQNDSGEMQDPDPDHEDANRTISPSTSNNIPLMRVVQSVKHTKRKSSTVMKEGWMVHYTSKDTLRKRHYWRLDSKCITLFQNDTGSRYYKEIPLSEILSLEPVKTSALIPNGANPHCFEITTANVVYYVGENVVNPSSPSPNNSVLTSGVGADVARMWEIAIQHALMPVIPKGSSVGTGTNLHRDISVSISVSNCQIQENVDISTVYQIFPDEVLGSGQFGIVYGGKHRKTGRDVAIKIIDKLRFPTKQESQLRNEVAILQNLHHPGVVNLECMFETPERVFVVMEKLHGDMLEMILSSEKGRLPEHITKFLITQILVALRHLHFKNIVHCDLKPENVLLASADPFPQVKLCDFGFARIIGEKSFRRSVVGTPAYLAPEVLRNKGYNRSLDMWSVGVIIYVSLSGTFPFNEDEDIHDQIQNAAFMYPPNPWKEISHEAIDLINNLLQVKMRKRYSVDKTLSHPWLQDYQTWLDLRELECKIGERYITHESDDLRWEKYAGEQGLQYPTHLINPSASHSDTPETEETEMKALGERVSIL
endpoint: inhibition (%)

[
  {
    "smiles_structure": "COc1cc2c(Oc3ccc4[nH]c(C)cc4c3F)ncnc2cc1OCCCN1CCCC1",
    "assay_value": -2.2
  },
  {
    "smiles_structure": "Cc1ccc(Nc2nccc(N(C)c3ccc4c(C)n(C)nc4c3)n2)cc1S(N)(=O)=O",
    "assay_value": -0.8
  },
  {
    "smiles_structure": "CCN(CC)CCNC(=O)c1c(C)[nH]c(/C=C2\\C(=O)Nc3ccc(F)cc32)c1C",
    "assay_value": 73.6
  },
  {
    "smiles_structure": "CNC(=O)c1cc(Oc2ccc(NC(=O)Nc3ccc(Cl)c(C(F)(F)F)c3)cc2)ccn1",
    "assay_value": 2.7
  }
]

----------
Reported inhibition values follow for various compounds
target: PRKAA2 (human); assay: Caliper, Mobility shift assay off-chip; conditions: compound 0.02 µM
endpoint: inhibition (%)

[
  {
    "smiles_structure": "Cc1ccc(Nc2nccc(N(C)c3ccc4c(C)n(C)nc4c3)n2)cc1S(N)(=O)=O",
    "endpoint": "inhibition",
    "assay_value": 7
  },
  {
    "smiles_structure": "CNC(=O)c1ccccc1Sc1ccc2c(/C=C/c3ccccn3)n[nH]c2c1",
    "endpoint": "inhibition",
    "assay_value": 8.8
  },
  {
    "smiles_structure": "COc1cc2c(Oc3ccc4[nH]c(C)cc4c3F)ncnc2cc1OCCCN1CCCC1",
    "endpoint": "inhibition",
    "assay_value": 5.1
  },
  {
    "smiles_structure": "CNC(=O)c1cc(Oc2ccc(NC(=O)Nc3ccc(Cl)c(C(F)(F)F)c3)cc2)ccn1",
    "endpoint": "inhibition",
    "assay_value": -5.3
  }
]

----------
molecular target: AXL (human) (UniProt P30530); assay: Caliper, Mobility shift assay off-chip; conditions: compound 0.2 µM
Sequence (P30530 whole entry, looked up): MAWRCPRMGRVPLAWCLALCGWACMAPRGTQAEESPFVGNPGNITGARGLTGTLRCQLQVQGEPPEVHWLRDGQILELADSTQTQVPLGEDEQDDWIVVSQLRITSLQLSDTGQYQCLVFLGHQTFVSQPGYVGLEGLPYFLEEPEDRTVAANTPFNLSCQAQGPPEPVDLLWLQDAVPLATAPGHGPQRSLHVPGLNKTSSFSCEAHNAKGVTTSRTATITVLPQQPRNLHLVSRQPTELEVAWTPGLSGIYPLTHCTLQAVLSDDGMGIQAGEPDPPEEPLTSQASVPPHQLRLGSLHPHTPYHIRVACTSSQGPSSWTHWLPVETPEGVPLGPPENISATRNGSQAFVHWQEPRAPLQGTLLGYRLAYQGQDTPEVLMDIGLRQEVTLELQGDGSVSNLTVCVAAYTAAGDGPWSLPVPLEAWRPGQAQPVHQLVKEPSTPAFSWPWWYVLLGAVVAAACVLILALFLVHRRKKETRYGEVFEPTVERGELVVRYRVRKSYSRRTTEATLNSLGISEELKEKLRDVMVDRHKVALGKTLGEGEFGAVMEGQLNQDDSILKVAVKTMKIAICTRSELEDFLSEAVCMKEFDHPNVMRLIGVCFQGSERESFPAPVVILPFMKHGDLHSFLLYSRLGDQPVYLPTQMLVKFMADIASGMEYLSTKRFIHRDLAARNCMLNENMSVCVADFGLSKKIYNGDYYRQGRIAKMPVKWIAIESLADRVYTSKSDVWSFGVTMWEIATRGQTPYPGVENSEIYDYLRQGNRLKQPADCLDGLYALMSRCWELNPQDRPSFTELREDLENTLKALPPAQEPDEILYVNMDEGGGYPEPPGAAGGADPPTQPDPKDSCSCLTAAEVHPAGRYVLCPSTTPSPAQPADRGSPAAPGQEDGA
Reported inhibition values follow for various compounds

[
  {
    "smiles_structure": "COc1cc2c(Oc3ccc4[nH]c(C)cc4c3F)ncnc2cc1OCCCN1CCCC1",
    "target_or_system": "AXL (human) (UniProt P30530)",
    "inhibition": "17.7%"
  },
  {
    "smiles_structure": "CNC(=O)c1cc(Oc2ccc(NC(=O)Nc3ccc(Cl)c(C(F)(F)F)c3)cc2)ccn1",
    "target_or_system": "AXL (human) (UniProt P30530)",
    "inhibition": "7.1%"
  },
  {
    "smiles_structure": "CCN(CC)CCNC(=O)c1c(C)[nH]c(/C=C2\\C(=O)Nc3ccc(F)cc32)c1C",
    "target_or_system": "AXL (human) (UniProt P30530)",
    "inhibition": "96.8%"
  },
  {
    "smiles_structure": "Cc1ccc(Nc2nccc(N(C)c3ccc4c(C)n(C)nc4c3)n2)cc1S(N)(=O)=O",
    "target_or_system": "AXL (human) (UniProt P30530)",
    "inhibition": "10.3%"
  }
]

----------
target: MAPK13 (human) (UniProt O15264); test: Caliper, Mobility shift assay off-chip; conditions: compound 0.02 µM
Sequence (O15264 whole entry, looked up): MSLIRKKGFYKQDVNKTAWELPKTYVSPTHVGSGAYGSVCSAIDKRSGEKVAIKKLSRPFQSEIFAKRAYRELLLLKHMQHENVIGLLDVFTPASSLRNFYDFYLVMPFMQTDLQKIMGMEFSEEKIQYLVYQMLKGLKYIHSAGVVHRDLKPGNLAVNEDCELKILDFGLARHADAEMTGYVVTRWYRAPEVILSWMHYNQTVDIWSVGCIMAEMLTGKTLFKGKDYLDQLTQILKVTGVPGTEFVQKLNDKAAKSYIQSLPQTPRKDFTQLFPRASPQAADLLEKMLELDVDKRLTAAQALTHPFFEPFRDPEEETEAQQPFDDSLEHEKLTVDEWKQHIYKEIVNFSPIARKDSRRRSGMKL

[
  {
    "smiles_structure": "COc1cc2c(Oc3ccc4[nH]c(C)cc4c3F)ncnc2cc1OCCCN1CCCC1",
    "inhibition, %": -2.9
  },
  {
    "smiles_structure": "CNC(=O)c1ccccc1Sc1ccc2c(/C=C/c3ccccn3)n[nH]c2c1",
    "inhibition, %": -3.7
  },
  {
    "smiles_structure": "CNC(=O)c1cc(Oc2ccc(NC(=O)Nc3ccc(Cl)c(C(F)(F)F)c3)cc2)ccn1",
    "inhibition, %": -3.5
  },
  {
    "smiles_structure": "Cc1ccc(Nc2nccc(N(C)c3ccc4c(C)n(C)nc4c3)n2)cc1S(N)(=O)=O",
    "inhibition, %": -3.6
  }
]

----------
target: UniProtKB P22455; assay: Caliper, Mobility shift assay off-chip; conditions: compound 0.02 µM
Sequence (P22455 whole entry, looked up): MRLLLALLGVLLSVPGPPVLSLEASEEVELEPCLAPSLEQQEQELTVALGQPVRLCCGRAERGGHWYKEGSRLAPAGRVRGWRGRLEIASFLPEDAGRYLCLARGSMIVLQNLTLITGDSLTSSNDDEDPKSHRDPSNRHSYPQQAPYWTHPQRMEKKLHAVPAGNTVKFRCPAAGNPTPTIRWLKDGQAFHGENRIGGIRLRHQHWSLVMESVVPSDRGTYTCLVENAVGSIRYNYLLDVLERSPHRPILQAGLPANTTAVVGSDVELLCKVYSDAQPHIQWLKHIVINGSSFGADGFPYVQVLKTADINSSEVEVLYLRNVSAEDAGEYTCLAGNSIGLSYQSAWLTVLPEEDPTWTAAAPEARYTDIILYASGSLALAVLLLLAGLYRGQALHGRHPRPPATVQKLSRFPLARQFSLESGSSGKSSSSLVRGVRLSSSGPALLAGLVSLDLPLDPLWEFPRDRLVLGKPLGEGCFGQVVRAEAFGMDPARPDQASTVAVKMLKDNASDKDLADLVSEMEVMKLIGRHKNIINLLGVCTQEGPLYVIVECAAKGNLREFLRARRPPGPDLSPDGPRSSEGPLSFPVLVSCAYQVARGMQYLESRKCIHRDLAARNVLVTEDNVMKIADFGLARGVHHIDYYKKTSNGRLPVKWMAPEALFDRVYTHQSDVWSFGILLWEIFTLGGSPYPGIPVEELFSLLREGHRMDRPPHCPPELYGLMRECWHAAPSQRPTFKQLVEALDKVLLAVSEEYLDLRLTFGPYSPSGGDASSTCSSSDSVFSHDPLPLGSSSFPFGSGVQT
Reported inhibition values follow for various compounds

[
  {
    "smiles_structure": "CNC(=O)c1cc(Oc2ccc(NC(=O)Nc3ccc(Cl)c(C(F)(F)F)c3)cc2)ccn1",
    "inhibition": "-7.4%"
  },
  {
    "smiles_structure": "Cc1ccc(Nc2nccc(N(C)c3ccc4c(C)n(C)nc4c3)n2)cc1S(N)(=O)=O",
    "inhibition": "0.7%"
  },
  {
    "smiles_structure": "COc1cc2c(Oc3ccc4[nH]c(C)cc4c3F)ncnc2cc1OCCCN1CCCC1",
    "inhibition": "3.2%"
  },
  {
    "smiles_structure": "CNC(=O)c1ccccc1Sc1ccc2c(/C=C/c3ccccn3)n[nH]c2c1",
    "inhibition": "-3.4%"
  }
]

----------
biological target: TEK (human); assay: Caliper, Mobility shift assay off-chip; conditions: compound 0.02 µM
endpoint: inhibition (%)

[
  {
    "smiles_structure": "CNC(=O)c1ccccc1Sc1ccc2c(/C=C/c3ccccn3)n[nH]c2c1",
    "assay_value": -4.9
  },
  {
    "smiles_structure": "COc1cc2c(Oc3ccc4[nH]c(C)cc4c3F)ncnc2cc1OCCCN1CCCC1",
    "assay_value": 5.8
  },
  {
    "smiles_structure": "Cc1ccc(Nc2nccc(N(C)c3ccc4c(C)n(C)nc4c3)n2)cc1S(N)(=O)=O",
    "assay_value": -4.6
  },
  {
    "smiles_structure": "CNC(=O)c1cc(Oc2ccc(NC(=O)Nc3ccc(Cl)c(C(F)(F)F)c3)cc2)ccn1",
    "assay_value": -2.6
  }
]

----------
Reported inhibition values follow for various compounds
target: FLT1 (human); test: Caliper, Mobility shift assay off-chip; settings: compound 0.02 µM

[
  {
    "smiles_structure": "Cc1ccc(Nc2nccc(N(C)c3ccc4c(C)n(C)nc4c3)n2)cc1S(N)(=O)=O",
    "inhibition [%]": 66.5
  },
  {
    "smiles_structure": "CNC(=O)c1ccccc1Sc1ccc2c(/C=C/c3ccccn3)n[nH]c2c1",
    "inhibition [%]": 99.3
  },
  {
    "smiles_structure": "CNC(=O)c1cc(Oc2ccc(NC(=O)Nc3ccc(Cl)c(C(F)(F)F)c3)cc2)ccn1",
    "inhibition [%]": 49.3
  },
  {
    "smiles_structure": "COc1cc2c(Oc3ccc4[nH]c(C)cc4c3F)ncnc2cc1OCCCN1CCCC1",
    "inhibition [%]": 91.6
  }
]

----------
target: MAP3K8 (human) (UniProt P41279); assay: ELISA; settings: compound 0.02 µM
Sequence (P41279 whole entry, looked up): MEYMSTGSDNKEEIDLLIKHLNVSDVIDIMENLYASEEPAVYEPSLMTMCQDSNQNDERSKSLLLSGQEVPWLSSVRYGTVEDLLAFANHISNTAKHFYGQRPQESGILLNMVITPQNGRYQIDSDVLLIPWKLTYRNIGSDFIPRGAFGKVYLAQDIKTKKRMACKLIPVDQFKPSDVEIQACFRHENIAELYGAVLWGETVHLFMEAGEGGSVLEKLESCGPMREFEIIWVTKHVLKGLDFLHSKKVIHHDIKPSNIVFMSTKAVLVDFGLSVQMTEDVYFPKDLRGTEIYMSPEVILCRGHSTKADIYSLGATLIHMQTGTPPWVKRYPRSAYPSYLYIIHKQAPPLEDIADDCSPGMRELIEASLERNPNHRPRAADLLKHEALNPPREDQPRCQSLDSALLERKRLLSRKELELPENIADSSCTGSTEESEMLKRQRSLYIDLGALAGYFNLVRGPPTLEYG

[
  {
    "smiles_structure": "Cc1ccc(Nc2nccc(N(C)c3ccc4c(C)n(C)nc4c3)n2)cc1S(N)(=O)=O",
    "measurement_unit": "%",
    "inhibition": -2.6
  },
  {
    "smiles_structure": "CNC(=O)c1cc(Oc2ccc(NC(=O)Nc3ccc(Cl)c(C(F)(F)F)c3)cc2)ccn1",
    "measurement_unit": "%",
    "inhibition": 0.5
  },
  {
    "smiles_structure": "CNC(=O)c1ccccc1Sc1ccc2c(/C=C/c3ccccn3)n[nH]c2c1",
    "measurement_unit": "%",
    "inhibition": -0.7
  },
  {
    "smiles_structure": "COc1cc2c(Oc3ccc4[nH]c(C)cc4c3F)ncnc2cc1OCCCN1CCCC1",
    "measurement_unit": "%",
    "inhibition": -3.2
  }
]

----------
Reported inhibition values follow for various compounds
biological target: NEK2 (human) (UniProt P51955); assay: Caliper, Mobility shift assay off-chip; conditions: compound 0.02 µM
Sequence (P51955 whole entry, looked up): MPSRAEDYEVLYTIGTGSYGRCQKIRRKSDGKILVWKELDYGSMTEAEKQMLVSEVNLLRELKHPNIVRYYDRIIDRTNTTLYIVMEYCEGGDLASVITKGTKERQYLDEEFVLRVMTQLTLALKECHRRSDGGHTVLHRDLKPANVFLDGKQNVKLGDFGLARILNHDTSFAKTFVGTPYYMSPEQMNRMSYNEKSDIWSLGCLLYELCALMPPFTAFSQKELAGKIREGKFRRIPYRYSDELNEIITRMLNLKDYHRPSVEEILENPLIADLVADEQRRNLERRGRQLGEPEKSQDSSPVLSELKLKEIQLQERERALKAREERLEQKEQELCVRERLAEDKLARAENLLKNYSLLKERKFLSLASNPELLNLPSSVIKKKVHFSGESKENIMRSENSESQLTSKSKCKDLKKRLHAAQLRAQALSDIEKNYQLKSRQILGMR
endpoint: inhibition (%)

[
  {
    "smiles_structure": "COc1cc2c(Oc3ccc4[nH]c(C)cc4c3F)ncnc2cc1OCCCN1CCCC1",
    "assay_value": 6.3
  },
  {
    "smiles_structure": "Cc1ccc(Nc2nccc(N(C)c3ccc4c(C)n(C)nc4c3)n2)cc1S(N)(=O)=O",
    "assay_value": 5.4
  },
  {
    "smiles_structure": "CNC(=O)c1cc(Oc2ccc(NC(=O)Nc3ccc(Cl)c(C(F)(F)F)c3)cc2)ccn1",
    "assay_value": -2.3
  },
  {
    "smiles_structure": "CNC(=O)c1ccccc1Sc1ccc2c(/C=C/c3ccccn3)n[nH]c2c1",
    "assay_value": 4.7
  }
]
